The measured values listed here are drawn from ChEMBL document CHEMBL1671647.

protocol.details: Inhibition of Beta-lactamase TEM-1
endpoint.name: IC50 (nM)
Provide only the numeric value, understood in nM.

INSERT INTO measurements (compound, unit_descriptor, test_result) VALUES
  ('CC1(C)[C@H](C(=O)O)N2C(=O)C[C@H]2S1(=O)=O [SULBACTAM]', 'nM', 1060);

Please report the recorded IC50 for O=C(O)[C@H]1/C(=C/CO)O[C@@H]2CC(=O)N21 [CLAVULANIC ACID] .
30

Please report the recorded IC50 for C/C=C1/C(=O)N2C(C(=O)O)=C3[C@@H](OC)CCC[C@@H]3[C@H]12 .
55

Please report the recorded IC50 for C[C@]1(Cn2ccnn2)[C@H](C(=O)O)N2C(=O)C[C@H]2S1(=O)=O [TAZOBACTAM] .
14

* * *

protocol.details: Inhibition of Enterobacter cloacae Beta-lactamase AmpC
Parameter: IC50. Scope: all listed entries.
Provide only the numeric value, understood in µM.

Recorded IC50, per entry:
INSERT INTO assay_data (compound, test_result) VALUES
  ('C[C@]1(Cn2ccnn2)[C@H](C(=O)O)N2C(=O)C[C@H]2S1(=O)=O [TAZOBACTAM]', 1.76),
  ('CC1(C)[C@H](C(=O)O)N2C(=O)C[C@H]2S1(=O)=O [SULBACTAM]', 11.9),
  ('C/C=C1/C(=O)N2C(C(=O)O)=C3[C@@H](OC)CCC[C@@H]3[C@H]12', 0.062);

Please report the recorded IC50 for O=C(O)[C@H]1/C(=C/CO)O[C@@H]2CC(=O)N21 [CLAVULANIC ACID] .
136
